Origin of values: patent US20220289719A1

biological target: Human recombinant full-length MNK1 protein (Homo sapiens, UniProt Q9BUB5); construct: Human recombinant full-length MNK1 protein; assay: MNK1 inhibitory activity assay (ADP-Glo in vitro kinase assay); settings: 10 concentration points
Sequence (Q9BUB5 whole entry): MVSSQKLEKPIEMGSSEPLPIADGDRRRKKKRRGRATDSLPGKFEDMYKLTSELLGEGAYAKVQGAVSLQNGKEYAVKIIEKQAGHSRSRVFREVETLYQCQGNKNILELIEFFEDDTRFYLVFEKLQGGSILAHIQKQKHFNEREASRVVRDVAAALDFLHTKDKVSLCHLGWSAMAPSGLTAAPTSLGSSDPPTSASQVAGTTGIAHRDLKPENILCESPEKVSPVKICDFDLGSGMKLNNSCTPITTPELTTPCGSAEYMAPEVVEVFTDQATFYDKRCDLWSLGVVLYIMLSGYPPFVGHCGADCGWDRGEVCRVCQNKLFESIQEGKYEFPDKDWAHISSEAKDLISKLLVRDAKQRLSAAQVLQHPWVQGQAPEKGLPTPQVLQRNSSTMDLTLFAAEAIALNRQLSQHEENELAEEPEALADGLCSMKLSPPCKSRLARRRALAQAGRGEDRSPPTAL
QUANTITY: IC50 (nM)

Some entries whose results are on file:
# STRUCTURE SMILES STRING, U, IC50
measured = [
    ("COc1c(Nc2cc(NC(=O)C3CC3)ncn2)ccc2c1CN(C)C2=O", "nM", 30.5),
    ("CCOC(=O)c1c(NC(C)=O)ncnc1Nc1cc2cn[nH]c2cc1OC", "nM", 11.9),
    ("COc1c(Nc2cc(Nc3ncccc3Cl)ncn2)ccc2c1CNC2=O", "nM", 96.6),
]

(I) COc1c(Nc2cc(Nc3ccncn3)ncn2)ccc2c1CNC2=O
(II) COc1cc2[nH]ncc2cc1Nc1cc(NC(=O)c2ccccn2)ncn1
Sort I and II by IC50 descending and give the first. State your choice using its label. II
(II: 532 nM, I: 17 nM)

---

target: Human recombinant full-length MNK1 protein (Homo sapiens, UniProt Q9BUB5); construct: Human recombinant full-length MNK1 protein; assay: MNK1 inhibitory activity assay (ADP-Glo in vitro kinase assay); conditions: 10 concentration points
pIC50: −log10 of the molar value.
QUANTITY: pIC50

Some entries whose results are on file:
# STRUCTURE SMILES STRING, SYSTEM NAME, pIC50
records = [
    ("COc1nc2[nH]ncc2cc1Nc1cc(NC(C)=O)ncn1", "Human recombinant full-length MNK1 protein (Homo sapiens, UniProt Q9BUB5)", 6.60),
    ("COc1cc2[nH]ncc2cc1Nc1cc(NS(=O)(=O)C2CC2)ncn1", "Human recombinant full-length MNK1 protein (Homo sapiens, UniProt Q9BUB5)", 5.98),
    ("COc1c(Nc2ncnc3[nH]ccc23)ccc2c1CNC2=O", "Human recombinant full-length MNK1 protein (Homo sapiens, UniProt Q9BUB5)", 7.68),
]

(A) COc1cc2c(cnn2C(=O)OC(C)(C)C)cc1Nc1cc(NC(C)=O)ncn1
(B) COc1cc2[nH]ncc2cc1Nc1ncnc(N)c1F
Given A and given B , which shows the smaller recorded pIC50? State your choice using its label. B
(B: 7.45, A: 7.81)

---

target: Human recombinant full-length MNK1 protein (Homo sapiens, UniProt Q9BUB5); construct: Human recombinant full-length MNK1 protein; assay: MNK1 inhibitory activity assay (ADP-Glo in vitro kinase assay); details: 10 concentration points
Counter-ions that a name gives are not always drawn.
QUANTITY: IC50 (nM)

Some entries whose results are on file:
# COMPOUND, SYSTEM NAME, IC50 / nM
data = [
    ("COc1cc2nn(C(=O)C3CC3)cc2cc1Nc1cc(NC(=O)C2CC2)ncn1", "Human recombinant full-length MNK1 protein (Homo sapiens, UniProt Q9BUB5)", 21),
    ("COc1cncnc1Nc1ccc2c(c1OC)CNC2=O", "Human recombinant full-length MNK1 protein (Homo sapiens, UniProt Q9BUB5)", 38.4),
    ("COc1cc2[nH]ncc2cc1Nc1ncnc2c1ncn2C", "Human recombinant full-length MNK1 protein (Homo sapiens, UniProt Q9BUB5)", 432),
    ("COc1cc2c(cnn2C(=O)OC(C)(C)C)cc1Nc1cc(NC(=O)C2CC2)ncn1", "Human recombinant full-length MNK1 protein (Homo sapiens, UniProt Q9BUB5)", 11.3),
    ("COc1c(Nc2cc(Nc3ccccn3)ncn2)ccc2c1CNC2=O", "Human recombinant full-length MNK1 protein (Homo sapiens, UniProt Q9BUB5)", 8.2),
]

(a) COc1cc2c(cnn2C(=O)C2CC2)cc1Nc1cc(NC(=O)C2CC2)ncn1
(b) COc1cc2[nH]ncc2cc1Nc1cc(-n2ccnc2)ncn1 [Compound 65, formate]
(c) CNc1cncnc1Nc1ccc2c(c1OC)CNC2=O
Rank entries according to their IC50, from the largest number down. Record the ranking as a list of labels in the requested order. a, b, c
(a: 1110 nM, b: 694 nM, c: 154 nM)
